System: PC-12 cells
Test: MTT cytotoxicity assay in PC-12 cells
Format: cell-based
Conditions: Rattus norvegicus, MTT assay for 48 h
pIC50: −log10 of the molar value.
MEASUREMENT NAME: pIC50

Ask: Would you kindly share the measured pIC50 for CC1(C)CC[C@]2(C(=O)O)CC[C@]3(C)C(=CC[C@@H]4[C@@]5(C)CC[C@H](O)[C@@](C)(CO)[C@@H]5CC[C@]43C)[C@@H]2C1 [hederagenin] ?
Reply: < 4.00
